Target: human Casp1 (Homo sapiens)
Construct: recombinant caspase, commercial (BioVision)
Sequence (P29466 120-297): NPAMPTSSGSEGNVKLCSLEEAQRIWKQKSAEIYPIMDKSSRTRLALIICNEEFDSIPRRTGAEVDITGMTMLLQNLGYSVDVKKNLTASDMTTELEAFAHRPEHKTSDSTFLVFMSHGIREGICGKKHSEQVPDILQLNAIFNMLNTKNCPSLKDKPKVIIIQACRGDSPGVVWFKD
Sequence (P29466 317-404): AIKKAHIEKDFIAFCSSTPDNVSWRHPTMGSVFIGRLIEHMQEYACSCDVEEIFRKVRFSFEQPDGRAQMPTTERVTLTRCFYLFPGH
Assay: fluorogenic AFC peptide substrate assay
Endpoint name: IC50 (nM)
Kindly provide the numeric value in nM only, without the unit symbol.

Report IC50 for `CC(C)(C)[C@H](NC(=O)c1ccc(N)c(Cl)c1)C(=O)N1CCC[C@H]1C(=O)N[C@H](C=O)CC(=O)O` tested on human Casp1 (Homo sapiens). 9.91
